Listed next: entries and their corresponding protein stability index.
B1: CDC25A (parent)
chain: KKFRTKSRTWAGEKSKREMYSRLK

# Variants of: B1
# assayText: protein stability index of a GFP-peptide fusion (GPS, HEK-293T) (PSI 1-6); higher = more stable;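 further: lentivirally expressed fusions sorted by FACS into six bins by GFP to DsRed ratio, PSI derived from sequencing read proportions per bin multiplied by bin number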
# assayContext: c terminus: a fixed tail appended

Look over these answered cases.
recordSequence: KKFRTKSRCWAGEKSKREMYSRLK [T9C]
protein stability index: 3.12

recordSequence: KKFRTKSRTWAGEKTKREMYSRLK [S15T]
protein stability index: 3.88

recordSequence: KKFRTKSRTWAGEKNKREMYSRLK [S15N]
protein stability index: 2.52

recordSequence: KKFRTKSRTWAGEKSDREMYSRLK [K16D]
protein stability index: 3.24

recordSequence: KKFRSKSRTWAGEKSKREMYSRLK [T5S]
protein stability index: 3.71

recordSequence: KKFRTKSRTWALEKSKREMYSRLK [G12L]
protein stability index: 2.11

recordSequence: KKFRTKSRTWAGEKGKREMYSRLK [S15G]
protein stability index: 2.52

recordSequence: KKFRTKSFTWAGEKSKREMYSRLK [R8F]
protein stability index: 2.88

recordSequence: KKFRTKSATWAGEKSKREMYSRLK [R8A]
protein stability index: 3.48

recordSequence: KKFRTKSRTWAGEKSKREMYSLLK [R22L]
protein stability index: 2.82

So what's the measured protein stability index for this one? KKFRTKSRTPAGEKSKREMYSRLK [W10P]
3.55

So what's the measured protein stability index for this one? KKFRTKSRTWAGEKSKCEMYSRLK [R17C]
3.34

So what's the measured protein stability index for this one? KKFRTKSRTWAGEKSHREMYSRLK [K16H]
3.56

So what's the measured protein stability index for this one? KKFRTKSRTWFGEKSKREMYSRLK [A11F]
2.62

So what's the measured protein stability index for this one? KKFRTKSRTWAGEKSKYEMYSRLK [R17Y]
3.4

So what's the measured protein stability index for this one? KEFRTKSRTWAGEKSKREMYSRLK [K2E]
3.27
